# TARGET_OR_TEST_SYSTEM: Histamine N-methyltransferase (Cavia porcellus) (UniProt Q9EST2)
# Sequence (Q9EST2 whole entry): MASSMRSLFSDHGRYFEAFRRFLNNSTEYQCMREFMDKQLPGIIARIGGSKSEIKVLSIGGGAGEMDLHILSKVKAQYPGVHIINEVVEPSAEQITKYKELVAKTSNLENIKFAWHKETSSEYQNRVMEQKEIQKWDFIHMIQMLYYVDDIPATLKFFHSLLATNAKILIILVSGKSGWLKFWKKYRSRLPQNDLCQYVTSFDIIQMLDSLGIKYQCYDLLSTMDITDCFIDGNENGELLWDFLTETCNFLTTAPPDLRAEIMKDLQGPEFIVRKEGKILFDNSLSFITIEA
# PROCEDURE_TEXT: Inhibition of guinea pig HMT at 2 mM by radiochemical technique
inhibition overview
Give your result in % as a bare value.

Solved entries (count: 3):
In [3]: df
Out[3]:
                                   molecule  result_type  endpoint_unit  measured
0  Nc1ncnc2c1ncn2[C@@H]1O[C@H](CSCC(N)C(=O)O)[C@@H](O)[C@H]1O (single isomer, unassigned)   inhibition              %        43
1  Nc1ncnc2c1ncn2[C@@H]1O[C@H](CSCCC(N)C(=O)O)[C@@H](O)[C@H]1O (single isomer, unassigned)   inhibition              %        99
2  Nc1ncnc2c1ncn2[C@@H]1O[C@H](CSCC[C@H](N)C(=O)O)[C@@H](O)[C@H]1O   inhibition              %        89

Let's switch to this molecule now.
State the recorded inhibition for this entry: C[S+](CC[C@@H](N)C(=O)O)C[C@H](CO)O[C@H](CO)n1cnc2c(N)ncnc21 (some centres undefined)
0

###

Form field: inhibition (one value per entry).
# TARGET_OR_TEST_SYSTEM: UniProt:P10950
# Sequence (P10950 whole entry): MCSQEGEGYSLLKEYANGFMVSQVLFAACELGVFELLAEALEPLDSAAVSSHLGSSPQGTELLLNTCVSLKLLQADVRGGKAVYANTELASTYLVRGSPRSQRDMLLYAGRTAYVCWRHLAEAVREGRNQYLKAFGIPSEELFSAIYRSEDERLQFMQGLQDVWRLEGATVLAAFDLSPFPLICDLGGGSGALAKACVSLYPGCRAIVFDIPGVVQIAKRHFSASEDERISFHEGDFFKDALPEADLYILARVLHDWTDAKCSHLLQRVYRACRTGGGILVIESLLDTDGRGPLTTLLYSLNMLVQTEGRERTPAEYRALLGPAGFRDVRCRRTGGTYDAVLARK
# PROCEDURE_TEXT: Inhibition of bovine pineal gland HIOMT at 0.2 mM by radiochemical technique
Express it in %; write the number only.

Example results:
In [3]: df
Out[3]:
                                   compound  measured
0  Nc1ncnc2c1ncn2[C@@H]1O[C@H](CSCC(N)C(=O)O)[C@@H](O)[C@H]1O (single isomer, unassigned)        12
1  Nc1ncnc2c1ncn2[C@@H]1O[C@H](CSCCC(N)C(=O)O)[C@@H](O)[C@H]1O (single isomer, unassigned)         1
2  Nc1ncnc2c1ncn2[C@@H](CO)O[C@@H](CO)C[S+]([O-])CC[C@@H](N)C(=O)O (some centres not stated)         7

Here is another compound to look at.
Value lookup for inhibition; key = Nc1ncnc2c1ncn2[C@@H](CO)O[C@@H](CO)CSC[C@@H](N)C(=O)O
0

###

# TARGET_OR_TEST_SYSTEM: Phenylethanolamine N-methyltransferase (Bos taurus)
# PROCEDURE_TEXT: Inhibition of bovine adrenal medulla PNMT at 2 mM by radiochemical technique
This listing pairs molecules with measured inhibition.
Numbers only here, please. The scale is %.

// worked examples, inhibition included
>>> df
                                   molecule  measured
0  Nc1ncnc2c1ncn2[C@@H](CO)O[C@@H](CO)CSC[C@@H](N)C(=O)O        15
1  Nc1ncnc2c1ncn2[C@@H]1O[C@H](C[S+]([O-])CC[C@@H](N)C(=O)O)[C@@H](O)[C@H]1O (stereo partly drawn)        22

Please look up its inhibition: Nc1ncnc2c1ncn2[C@@H]1O[C@H](CSCCC(N)C(=O)O)[C@@H](O)[C@H]1O (single isomer, unassigned)
32

###

Recorded inhibition for the following compounds
# TARGET_OR_TEST_SYSTEM: Acetylserotonin O-methyltransferase (Bos taurus)
# PROCEDURE_TEXT: Inhibition of bovine pineal gland HIOMT at 2 mM by radiochemical technique
Please reply with the bare figure in % and do not write the unit itself.

Recall the recorded inhibition for Nc1ncnc2c1ncn2[C@@H]1O[C@H](CSCC(N)C(=O)O)[C@@H](O)[C@H]1O (single isomer, unassigned) with Acetylserotonin O-methyltransferase (Bos taurus) and state it.
33
